Assay: in vitro
Settings: African green monkey
Reported metric: viability at 1.5 µM

Please fill in: viability at 1.5 µM reported for O[C@H]1[C@H]2c3cc4c(cc3CN3CCC(=C[C@@H]1O)[C@H]23)OCO4 [Lycorine] = > 90%
